- study target: α7 nAChRs (Mus musculus, UniProt P49582)
- Sequence (P49582 23-502): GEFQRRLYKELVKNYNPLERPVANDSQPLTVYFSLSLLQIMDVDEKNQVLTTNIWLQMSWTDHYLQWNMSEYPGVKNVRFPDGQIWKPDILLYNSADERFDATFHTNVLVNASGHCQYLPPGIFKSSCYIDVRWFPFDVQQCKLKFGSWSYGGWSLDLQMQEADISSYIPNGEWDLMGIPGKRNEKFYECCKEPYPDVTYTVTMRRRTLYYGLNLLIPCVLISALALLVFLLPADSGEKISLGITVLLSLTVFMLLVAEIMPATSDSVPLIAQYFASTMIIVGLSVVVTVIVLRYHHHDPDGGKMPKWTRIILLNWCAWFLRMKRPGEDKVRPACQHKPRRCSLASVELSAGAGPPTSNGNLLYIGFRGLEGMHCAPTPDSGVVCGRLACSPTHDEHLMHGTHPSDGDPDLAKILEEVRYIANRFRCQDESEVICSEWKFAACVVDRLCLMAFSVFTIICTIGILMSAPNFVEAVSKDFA
- conditions: in vivo
Reported % Injected dose/g tissue, Striatum by item:
Just the number please, in % Injected dose/g tissue, no unit attached.

- compound: "[11CH3]N1CC2CN(c3ccc(-c4ccccc4)nn3)CC2C1 (stereo not shown) [[^11C]A-582941]"
  study target: "α7 nAChRs (Mus musculus, UniProt P49582)"
  value units: "% Injected dose/g tissue"
  % Injected dose/g tissue, Striatum: 4.03
- compound: "CN1CC2CN(c3ccc4oc5ccccc5c(=O)c4c3)CC2C1 (stereo not shown)"
  study target: "α7 nAChRs (Mus musculus, UniProt P49582)"
  value units: "% Injected dose/g tissue"
  % Injected dose/g tissue, Striatum: 3.94
- compound: "[11CH3]N1CC2CN(c3ccc4oc5ccccc5c(=O)c4c3)CC2C1 (stereo not shown) [[^11C]A-844606]"
  study target: "α7 nAChRs (Mus musculus, UniProt P49582)"
  value units: "% Injected dose/g tissue"
  % Injected dose/g tissue, Striatum: 5.01

As a next step, examine the compound that follows.
[Q] Need % Injected dose/g tissue, Striatum of CN1CC2CN(c3ccc(-c4ccccc4)nn3)CC2C1 (stereo not shown) , thanks.
[A] 6.81

====

Reported % Injected dose/g tissue, Hypothalamus by item:
- study target: α7 nAChRs (Mus musculus, UniProt P49582)
- conditions: in vivo
Just the number please, in % Injected dose/g tissue, no unit attached.

- compound: "CN1CC2CN(c3ccc4oc5ccccc5c(=O)c4c3)CC2C1 (stereo not shown) [A-844606]"
  % Injected dose/g tissue, Hypothalamus / % Injected dose/g tissue: 3.50
- compound: "[11CH3]N1CC2CN(c3ccc(-c4ccccc4)nn3)CC2C1 (stereo not shown) [[^11C]A-582941]"
  % Injected dose/g tissue, Hypothalamus / % Injected dose/g tissue: 3.51
- compound: "CN1CC2CN(c3ccc(-c4ccccc4)nn3)CC2C1 (stereo not shown) [A-582941]"
  % Injected dose/g tissue, Hypothalamus / % Injected dose/g tissue: 4.76

As a next step, examine the compound that follows.
[Q] Which % Injected dose/g tissue, Hypothalamus is reported with α7 nAChRs (Mus musculus, UniProt P49582) for this entry: [11CH3]N1CC2CN(c3ccc4oc5ccccc5c(=O)c4c3)CC2C1 (stereo not shown) [[^11C]A-844606] ?
[A] 4.21

====

- study target: α7 nAChRs (Mus musculus)
- conditions: in vivo
parameter: % Injected dose/g tissue, Midbrain (% Injected dose/g tissue)
Just the number please, in % Injected dose/g tissue, no unit attached.

- compound: "CN1CC2CN(c3ccc(-c4ccccc4)nn3)CC2C1 (stereo not shown)"
  study target: "α7 nAChRs (Mus musculus)"
  parameter: "% Injected dose/g tissue, Midbrain"
  assay value: 5.80
- compound: "CN1CC2CN(c3ccc4oc5ccccc5c(=O)c4c3)CC2C1 (stereo not shown)"
  study target: "α7 nAChRs (Mus musculus)"
  parameter: "% Injected dose/g tissue, Midbrain"
  assay value: 4.29
- compound: "[11CH3]N1CC2CN(c3ccc(-c4ccccc4)nn3)CC2C1 (stereo not shown) [[^11C]A-582941]"
  study target: "α7 nAChRs (Mus musculus)"
  parameter: "% Injected dose/g tissue, Midbrain"
  assay value: 4.09

As a next step, examine the compound that follows.
[Q] Which % Injected dose/g tissue, Midbrain is reported with α7 nAChRs (Mus musculus) for this entry: [11CH3]N1CC2CN(c3ccc4oc5ccccc5c(=O)c4c3)CC2C1 (stereo not shown) [[^11C]A-844606] ?
[A] 5.43

====

Reported % Injected dose/g tissue, Blood by item:
- study target: α7 nAChRs (Mus musculus, UniProt P49582)
- conditions: in vivo
Just the number please, in % Injected dose/g tissue, no unit attached.

Illustrative cases are given below, each with its answer.
- compound: "[11CH3]N1CC2CN(c3ccc4oc5ccccc5c(=O)c4c3)CC2C1 (stereo not shown) [[^11C]A-844606]"
  study target: "α7 nAChRs (Mus musculus, UniProt P49582)"
  % Injected dose/g tissue, Blood, % Injected dose/g tissue: 0.57
- compound: "CN1CC2CN(c3ccc4oc5ccccc5c(=O)c4c3)CC2C1 (stereo not shown) [A-844606]"
  study target: "α7 nAChRs (Mus musculus, UniProt P49582)"
  % Injected dose/g tissue, Blood, % Injected dose/g tissue: 0.91
- compound: "[11CH3]N1CC2CN(c3ccc(-c4ccccc4)nn3)CC2C1 (stereo not shown) [[^11C]A-582941]"
  study target: "α7 nAChRs (Mus musculus, UniProt P49582)"
  % Injected dose/g tissue, Blood, % Injected dose/g tissue: 0.88

[Q] Need % Injected dose/g tissue, Blood of CN1CC2CN(c3ccc(-c4ccccc4)nn3)CC2C1 (stereo not shown) [A-582941] , thanks.
[A] 0.61

====

- study target: α7 nAChRs (Mus musculus, UniProt P49582)
- conditions: in vivo
Reported % Injected dose/g tissue, Cerebellum by item:
Just the number please, in % Injected dose/g tissue, no unit attached.

- compound: "[11CH3]N1CC2CN(c3ccc(-c4ccccc4)nn3)CC2C1 (stereo not shown) [[^11C]A-582941]"
  study target: "α7 nAChRs (Mus musculus, UniProt P49582)"
  parameter: "% Injected dose/g tissue, Cerebellum"
  assay value: 3.71
- compound: "[11CH3]N1CC2CN(c3ccc4oc5ccccc5c(=O)c4c3)CC2C1 (stereo not shown) [[^11C]A-844606]"
  study target: "α7 nAChRs (Mus musculus, UniProt P49582)"
  parameter: "% Injected dose/g tissue, Cerebellum"
  assay value: 4.54

[Q] Need % Injected dose/g tissue, Cerebellum of CN1CC2CN(c3ccc(-c4ccccc4)nn3)CC2C1 (stereo not shown) , thanks.
[A] 5.17

[Q] Need % Injected dose/g tissue, Cerebellum of CN1CC2CN(c3ccc4oc5ccccc5c(=O)c4c3)CC2C1 (stereo not shown) , thanks.
[A] 3.62

====

Reported % Injected dose/g tissue, Whole brain by item:
- study target: α7 nAChRs (Mus musculus, UniProt P49582)
- conditions: in vivo
Just the number please, in % Injected dose/g tissue, no unit attached.

Illustrative cases are given below, each with its answer.
- molecule: "CN1CC2CN(c3ccc(-c4ccccc4)nn3)CC2C1 (stereo not shown)"
  study target: "α7 nAChRs (Mus musculus, UniProt P49582)"
  % Injected dose/g tissue, Whole brain (% Injected dose/g tissue): 6.71
- molecule: "CN1CC2CN(c3ccc4oc5ccccc5c(=O)c4c3)CC2C1 (stereo not shown)"
  study target: "α7 nAChRs (Mus musculus, UniProt P49582)"
  % Injected dose/g tissue, Whole brain (% Injected dose/g tissue): 4.27
- molecule: "[11CH3]N1CC2CN(c3ccc4oc5ccccc5c(=O)c4c3)CC2C1 (stereo not shown) [[^11C]A-844606]"
  study target: "α7 nAChRs (Mus musculus, UniProt P49582)"
  % Injected dose/g tissue, Whole brain (% Injected dose/g tissue): 5.83

[Q] Need % Injected dose/g tissue, Whole brain of [11CH3]N1CC2CN(c3ccc(-c4ccccc4)nn3)CC2C1 (stereo not shown) [[^11C]A-582941] , thanks.
[A] 4.23

====

- study target: α7 nAChRs (Mus musculus)
- conditions: in vivo
Reported % Injected dose/g tissue, Medulla oblongata by item:
Just the number please, in % Injected dose/g tissue, no unit attached.

Illustrative cases are given below, each with its answer.
- molecule: "CN1CC2CN(c3ccc4oc5ccccc5c(=O)c4c3)CC2C1 (stereo not shown)"
  assay value: 4.04
- molecule: "CN1CC2CN(c3ccc(-c4ccccc4)nn3)CC2C1 (stereo not shown)"
  assay value: 5.58
- molecule: "[11CH3]N1CC2CN(c3ccc(-c4ccccc4)nn3)CC2C1 (stereo not shown) [[^11C]A-582941]"
  assay value: 4.23

As a next step, examine the molecule that follows.
[Q] Need % Injected dose/g tissue, Medulla oblongata of [11CH3]N1CC2CN(c3ccc4oc5ccccc5c(=O)c4c3)CC2C1 (stereo not shown) [[^11C]A-844606] , thanks.
[A] 5.25

====

- study target: α7 nAChRs (Mus musculus)
- conditions: in vivo
parameter: % Injected dose/g tissue, Cerebral cortex (% Injected dose/g tissue)
Just the number please, in % Injected dose/g tissue, no unit attached.

Illustrative cases are given below, each with its answer.
- compound: "CN1CC2CN(c3ccc(-c4ccccc4)nn3)CC2C1 (stereo not shown)"
  assay value: 8.38
- compound: "CN1CC2CN(c3ccc4oc5ccccc5c(=O)c4c3)CC2C1 (stereo not shown)"
  assay value: 4.78
- compound: "[11CH3]N1CC2CN(c3ccc4oc5ccccc5c(=O)c4c3)CC2C1 (stereo not shown) [[^11C]A-844606]"
  assay value: 7.63

As a next step, examine the compound that follows.
[Q] Need % Injected dose/g tissue, Cerebral cortex of [11CH3]N1CC2CN(c3ccc(-c4ccccc4)nn3)CC2C1 (stereo not shown) [[^11C]A-582941] , thanks.
[A] 4.59
